system: normal primary NK cells, pool 1 (3 donors), resting (IL-2 0 ng/mL); assay: percent inhibition of viability; higher = more inhibition; conditions: 72 h; 1000 nM;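 also: normalised to DMSO-only wells as negative and benzethonium chloride as positive control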
Define the label as true when percent inhibition of viability is strictly less than 20% and as false in all remaining cases.

>>> class_assignment("c1ccc(Cn2c(-c3ccc(OC[C@H](C4CCNCC4)n4c(-c5ccccc5)nc5ccccc54)cc3)nc3ccccc32)cc1 [deltarasin] (max concentration tested 10000 nM)")
"false"

// query Is 20% strictly greater than the compound's reported percent inhibition of viability? compound: CC(C)c1c(C(=O)Nc2ccccc2)c(-c2ccccc2)c(-c2ccc(F)cc2)n1CC[C@@H](O)C[C@@H](O)CC(=O)O [Atorvastatin] (max concentration tested 10000 nM)
// result true

// query Is 20% strictly greater than the compound's reported percent inhibition of viability? compound: N#CCNC(=O)c1ccc(-c2ccnc(Nc3ccc(N4CCOCC4)cc3)n2)cc1 [Momelotinib] (max concentration tested 10000 nM)
// result true

// query Is 20% strictly greater than the compound's reported percent inhibition of viability? compound: Cn1ncnc1[C@H]1c2n[nH]c(=O)c3cc(F)cc(c23)N[C@@H]1c1ccc(F)cc1 [Talazoparib] (max concentration tested 1000 nM)
// result true

// query Is 20% strictly greater than the compound's reported percent inhibition of viability? compound: CS(=O)(=O)N1CCN(Cc2cc3nc(-c4cccc5[nH]ncc45)nc(N4CCOCC4)c3s2)CC1 [Pictilisib] (max concentration tested 10000 nM)
// result false

* * *

Measured drug sensitivity score of individual entries
system: DERL-7 (IL-2 2.5 ng/mL); experiment: drug sensitivity score (DSS) (DSS units); higher = more sensitive; extreme values may be limits of the assay; details: 72 h
When you answer, write just the number.

The examples below pair each entry with its known result.
>>> result_value("C[C@@H]1C[C@H]2[C@@H]3CCC4=CC(=O)C=C[C@]4(C)[C@@]3(F)[C@@H](O)C[C@]2(C)[C@@]1(O)C(=O)CO [Dexamethasone] (max concentration tested 10000 nM)")
37.9
>>> result_value("Cc1c(N)nc([C@H](CC(N)=O)NC[C@H](N)C(N)=O)nc1C(=O)N[C@H](C(=O)N[C@H](C)[C@@H](O)[C@H](C)C(=O)N[C@H](C(=O)NCCc1nc(-c2nc(C(=O)NCCC[S+](C)C)cs2)cs1)[C@@H](C)O)[C@@H](OC1OC(CO)C(O)C(O)C1OC1OC(CO)C(O)C(OC(N)=O)C1O)c1cnc[nH]1 (stereo not given in full) [Bleomycin] (max concentration tested 10000 nM)")
8.38
>>> result_value("O=C(O)CC[C@H]1CC[C@@](c2cc(F)ccc2F)(S(=O)(=O)c2ccc(Cl)cc2)CC1 [MK-0752] (max concentration tested 1000 nM)")
0
>>> result_value("CC(C)[C@H](C(=O)Nc1ccc(C(=O)NO)cc1)c1ccccc1 [AR-42] (max concentration tested 10000 nM)")
17.7
>>> result_value("CC[C@H](C)C(=O)O[C@H]1C[C@@H](C)C=C2C=C[C@H](C)[C@H](CC[C@@H]3C[C@@H](O)CC(=O)O3)[C@H]21 [Lovastatin] (max concentration tested 10000 nM)")
0

// query Look up DERL-7 (IL-2 2.5 ng/mL) data: drug sensitivity score of Cn1c(=O)n(-c2ccc(C(C)(C)C#N)cc2)c2c3cc(-c4cnc5ccccc5c4)ccc3ncc21 [Dactolisib] (max concentration tested 1000 nM) , then report it.
// result 19.6

// query Look up DERL-7 (IL-2 2.5 ng/mL) data: drug sensitivity score of CNC(=O)c1ccc2cc([C@@]3(O)CCn4cncc43)ccc2c1 [Orteronel] (max concentration tested 10000 nM) , then report it.
// result 0

// query Look up DERL-7 (IL-2 2.5 ng/mL) data: drug sensitivity score of N#Cc1ccc2[nH]c(O)c(-c3ccc(CN4CCOCC4)cn3)c2c1 [AZD-1080] (max concentration tested 10000 nM) , then report it.
// result 4.59

// query Look up DERL-7 (IL-2 2.5 ng/mL) data: drug sensitivity score of COc1cc([C@@H]2c3cc4c(cc3[C@@H](O[C@@H]3O[C@@H]5CO[C@@H](C)O[C@H]5[C@H](O)[C@H]3O)[C@H]3COC(=O)[C@H]23)OCO4)cc(OC)c1O [Etoposide] (max concentration tested 10000 nM) , then report it.
// result 21.9

// query Look up DERL-7 (IL-2 2.5 ng/mL) data: drug sensitivity score of C=C(c1ccc(C(=O)O)cc1)c1cc2c(cc1C)C(C)(C)CCC2(C)C [Bexarotene] (max concentration tested 10000 nM) , then report it.
// result 0
